target: NLuc-PRMT5 co-expressed with WDR77 (Homo sapiens); experiment: Compound EC50 titrations against MTA, NanoBRET in HEK293 (NLuc-PRMT5 + WDR77), with global Gaddum/Schild or Morrison fits; settings: EC50, nM (MTA = 0), Global/Schild fit, HEK293
Sequence (O14744 whole entry): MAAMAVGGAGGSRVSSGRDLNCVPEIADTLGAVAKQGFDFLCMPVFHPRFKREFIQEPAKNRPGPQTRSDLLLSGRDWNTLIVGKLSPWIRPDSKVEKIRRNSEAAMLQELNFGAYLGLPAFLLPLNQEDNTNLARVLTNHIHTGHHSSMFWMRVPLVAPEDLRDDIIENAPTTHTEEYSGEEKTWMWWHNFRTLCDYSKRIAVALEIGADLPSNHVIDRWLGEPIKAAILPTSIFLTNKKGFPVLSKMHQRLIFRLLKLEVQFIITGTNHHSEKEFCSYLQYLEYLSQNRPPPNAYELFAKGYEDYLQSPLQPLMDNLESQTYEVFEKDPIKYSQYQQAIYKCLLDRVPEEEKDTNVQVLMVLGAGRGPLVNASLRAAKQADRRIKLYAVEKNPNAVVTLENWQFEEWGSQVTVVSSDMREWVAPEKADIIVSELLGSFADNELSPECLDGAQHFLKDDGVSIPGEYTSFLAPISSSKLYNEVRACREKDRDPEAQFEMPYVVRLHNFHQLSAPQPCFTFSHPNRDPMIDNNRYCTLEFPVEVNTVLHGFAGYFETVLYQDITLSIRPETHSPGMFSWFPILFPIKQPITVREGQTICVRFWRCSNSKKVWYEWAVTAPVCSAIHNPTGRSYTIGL
Sequence (Q9BQA1 whole entry partner): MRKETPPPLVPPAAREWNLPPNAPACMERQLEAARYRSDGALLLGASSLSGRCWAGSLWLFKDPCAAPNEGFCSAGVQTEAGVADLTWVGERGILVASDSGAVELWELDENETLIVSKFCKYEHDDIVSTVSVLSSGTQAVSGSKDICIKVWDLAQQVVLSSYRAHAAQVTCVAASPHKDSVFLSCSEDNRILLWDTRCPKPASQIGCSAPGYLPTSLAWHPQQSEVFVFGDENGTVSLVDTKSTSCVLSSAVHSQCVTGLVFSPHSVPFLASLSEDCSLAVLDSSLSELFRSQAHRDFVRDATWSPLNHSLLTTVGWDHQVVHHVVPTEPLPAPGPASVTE
experimental readout: EC50 (nM)
Please give a number only; it is taken to be in nM.

So, Nc1ncnc2c1ccn2[C@@H]1O[C@H]([C@H](O)c2ccccc2)[C@@H](O)[C@H]1O [LLY-283] ? Its EC50 was 365

---

biological target: NLuc-PRMT5 co-expressed with WDR77 (Homo sapiens); assay: Compound EC50 titrations against MTA, NanoBRET in HEK293 (NLuc-PRMT5 + WDR77), with global Gaddum/Schild or Morrison fits; settings: EC50, [MTA] 0 μM; HEK293, 30 nM CBH-002
experimental readout: pEC50
By convention, pEC50 is the negative base-10 log of a molar concentration.

So, `Nc1ncnc2c1ccn2[C@@H]1O[C@H]([C@H](O)c2ccccc2)[C@@H](O)[C@H]1O` ? Its pEC50 was 6.46

---

target: UniProt O14744; experiment: SAM titration against CBH-002 in HEK293 cell lysate (linear range of SAM detection); assay type: binding; design: host or cells: HEK293 (live cells; digitonin lysate for the SAM titration); settings: Figure S3B; CBH-002 EC50 at [SAM] 0.06 uM
experimental readout: EC50 (µM)
Please give a number only; it is taken to be in µM.

So, `O=C(CCc1ccc2n1[B-](F)(F)[N+]1=C(c3ccc[nH]3)C=CC1=C2)NCCCCC(=O)N1CCC(Nc2cc(C(=O)NC[C@H](O)CN3CCc4ccccc4C3)ncn2)CC1` ? Its EC50 was 0.232

---

Molecular target: NanoLuc-PRMT5 co-expressed with WDR77 (Homo sapiens, UniProt O14744)
Sequence (O14744 whole entry): as the sequence (O14744 whole entry) above
Sequence (Q9BQA1 whole entry partner): as the sequence (Q9BQA1 whole entry partner) above
Test: Live-cell NanoBRET target engagement with BRET probe CBH-002 in HEK293 cells expressing NanoLuc-PRMT5 and unlabeled WDR77
Assay type: cell-based
Design: host or cells: HEK293
Details: read-out: NanoBRET EC50 (95% CI); HEK293, competitive displacement of CBH-002, 2 h, n=3
Method: HEK293 cells (ATCC) were cultured in DMEM (Thermo Fisher) + 10% (v/v) FBS (Seredigm), and HCT116 cells (Horizon Discovery, #PAR-034 and #R02-033) were cultured in McCoy’s 5A (Thermo Fisher) + 10% FBS, with incubation in a humidified, 37 °C/5% CO2 incubator. […] BRET ratio values were calculated by dividing the acceptor by the donor signal, and raw BRET was converted to milli-BRET (mBRET) units (mBu) by multiplying by 1000. […]
experimental readout: EC50 (nM)
Please give a number only; it is taken to be in nM.

Response field EC50 (NanoLuc-PRMT5 co-expressed with WDR77 (Homo sapiens, UniProt O14744)) for item Nc1ncnc2c1ccn2C1OC(C(O)c2ccccc2)C(O)C1O (stereo not shown) [PF-06939999] : 1.7

---

Target: NanoLuc-PRMT5 co-expressed with WDR77 (Homo sapiens, UniProt O14744)
Test: Live-cell NanoBRET target engagement with BRET probe CBH-002 in HEK293 cells expressing NanoLuc-PRMT5 and unlabeled WDR77
Type: cell-based
Design: host or cells: HEK293
Conditions: NanoBRET EC50 (95% CI, nM), HEK293, competitive displacement of CBH-002, 2 h, n=3
Experimental: HEK293 cells (ATCC) were cultured in DMEM (Thermo Fisher) + 10% (v/v) FBS (Seredigm), and HCT116 cells (Horizon Discovery, #PAR-034 and #R02-033) were cultured in McCoy’s 5A (Thermo Fisher) + 10% FBS, with incubation in a humidified, 37 °C/5% CO2 incubator. […] BRET ratio values were calculated by dividing the acceptor by the donor signal, and raw BRET was converted to milli-BRET (mBRET) units (mBu) by multiplying by 1000. […]
experimental readout: EC50 (nM)
Please give a number only; it is taken to be in nM.

Response field EC50 (NanoLuc-PRMT5 co-expressed with WDR77 (Homo sapiens, UniProt O14744)) for item `Nc1ncnc2c1ccn2[C@@H]1O[C@H]([C@H](O)c2ccccc2)[C@@H](O)[C@H]1O` : 467

---

target: NanoLuc-PRMT5 co-expressed with WDR77 (Homo sapiens, UniProt O14744); test: Live-cell NanoBRET target engagement with BRET probe CBH-002 in HEK293 cells expressing NanoLuc-PRMT5 and unlabeled WDR77; assay type: cell-based; set-up: host or cells: HEK293; details: probe titration against 10 µM GSK3326595 or DMSO, live HEK293, WDR77 co-expression; read-out: CBH-002 apparent affinity (EC50)
experimental readout: EC50 (µM)
Please give a number only; it is taken to be in µM.

So, O=C(CCc1ccc2n1[B-](F)(F)[N+]1=C(c3ccc[nH]3)C=CC1=C2)NCCCCC(=O)N1CCC(Nc2cc(C(=O)NC[C@H](O)CN3CCc4ccccc4C3)ncn2)CC1 [CBH-002] ? Its EC50 was 0.033

---

biological target: NLuc-PRMT5 (Homo sapiens); assay: SAM titration against CBH-002 in HEK293 cell lysate (linear range of SAM detection); assay type: binding; parameters: host or cells: HEK293 (live cells; digitonin lysate for the SAM titration); details: Figure S3B; CBH-002 EC50 at [SAM] 0 uM
experimental readout: EC50 (µM)
Please give a number only; it is taken to be in µM.

So, `O=C(CCc1ccc2n1[B-](F)(F)[N+]1=C(c3ccc[nH]3)C=CC1=C2)NCCCCC(=O)N1CCC(Nc2cc(C(=O)NC[C@H](O)CN3CCc4ccccc4C3)ncn2)CC1` ? Its EC50 was 1.07

---

molecular target: NLuc-PRMT5 (Homo sapiens, UniProt O14744); experiment: SAM titration against CBH-002 in HEK293 cell lysate (linear range of SAM detection); assay type: binding; set-up: host or cells: HEK293 (live cells; digitonin lysate for the SAM titration); conditions: Figure S3B; CBH-002 EC50 at [SAM] 0.004 uM
experimental readout: pEC50
By convention, pEC50 is the negative base-10 log of a molar concentration.

So, `O=C(CCc1ccc2n1[B-](F)(F)[N+]1=C(c3ccc[nH]3)C=CC1=C2)NCCCCC(=O)N1CCC(Nc2cc(C(=O)NC[C@H](O)CN3CCc4ccccc4C3)ncn2)CC1` ? Its pEC50 was 6.14

---

target: NLuc-PRMT5 (Homo sapiens, UniProt O14744); test: SAM titration against CBH-002 in HEK293 cell lysate (linear range of SAM detection); type: binding; parameters: host or cells: HEK293 (live cells; digitonin lysate for the SAM titration); conditions: Figure S3B; CBH-002 EC50 at [SAM] 0.001 uM
experimental readout: EC50

Response field EC50 (NLuc-PRMT5 (Homo sapiens, UniProt O14744)) for item O=C(CCc1ccc2n1[B-](F)(F)[N+]1=C(c3ccc[nH]3)C=CC1=C2)NCCCCC(=O)N1CCC(Nc2cc(C(=O)NC[C@H](O)CN3CCc4ccccc4C3)ncn2)CC1 [CBH-002] : 1220 nM

---

biological target: NLuc-PRMT5 (Homo sapiens); assay: SAM titration against CBH-002 in HEK293 cell lysate (linear range of SAM detection); format: binding; design: host or cells: HEK293 (live cells; digitonin lysate for the SAM titration); details: Figure S3B; CBH-002 EC50 at [SAM] 250 uM
experimental readout: EC50 (nM)
Please give a number only; it is taken to be in nM.

Response field EC50 (NLuc-PRMT5 (Homo sapiens)) for item `O=C(CCc1ccc2n1[B-](F)(F)[N+]1=C(c3ccc[nH]3)C=CC1=C2)NCCCCC(=O)N1CCC(Nc2cc(C(=O)NC[C@H](O)CN3CCc4ccccc4C3)ncn2)CC1` : 10

---

Target: NLuc-PRMT5 (Homo sapiens)
Experiment: SAM titration against CBH-002 in HEK293 cell lysate (linear range of SAM detection)
Type: binding
Design: host or cells: HEK293 (live cells; digitonin lysate for the SAM titration)
Settings: Figure S3B; CBH-002 EC50 at [SAM] 1000 uM
Protocol: To determine the linear range of SAM detection, HEK293 cells expressing NLuc-PRMT5 were lysed by addition of a 10x digitonin solution (Sigma), 500 µg/mL in Opti-MEM) and treated with a 1 mM, 4-fold, 11 pt dose-response series of SAM (Sigma) and a 1 µM 2-fold, 8 pt dose-response series of CBH-002. Lysate was incubated at RT for 30 min prior to reading BRET. […]
experimental readout: pEC50
By convention, pEC50 is the negative base-10 log of a molar concentration.

So, `O=C(CCc1ccc2n1[B-](F)(F)[N+]1=C(c3ccc[nH]3)C=CC1=C2)NCCCCC(=O)N1CCC(Nc2cc(C(=O)NC[C@H](O)CN3CCc4ccccc4C3)ncn2)CC1` ? Its pEC50 was 8.00
